system under test: WT STING (Homo sapiens, UniProt Q86WV6, H232R)
Sequence (Q86WV6 whole entry H232R): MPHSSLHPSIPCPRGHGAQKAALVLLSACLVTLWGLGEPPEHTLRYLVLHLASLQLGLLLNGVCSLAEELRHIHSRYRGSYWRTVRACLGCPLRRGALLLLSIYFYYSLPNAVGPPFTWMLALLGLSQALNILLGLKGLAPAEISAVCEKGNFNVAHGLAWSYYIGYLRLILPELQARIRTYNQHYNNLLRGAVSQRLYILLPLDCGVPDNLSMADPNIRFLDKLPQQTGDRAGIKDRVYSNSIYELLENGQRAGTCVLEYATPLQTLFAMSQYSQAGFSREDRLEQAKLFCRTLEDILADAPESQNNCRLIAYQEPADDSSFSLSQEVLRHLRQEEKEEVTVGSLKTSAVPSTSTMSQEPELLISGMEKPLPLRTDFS
assay name: Digitonin assay using 293T wtSTING-FL reporter cells
Assay type: cell-based
Design: host or cells: 293T (ATCC CRL-3216), stably transfected; also carries the 4xISRE firefly luciferase reporter
condition parameters: 293T wtSTING-FL cells, digitonin buffer 30 min, then 5 h, ISRE firefly luciferase reporter; read-out: Digitonin assay EC50 WT STING
Record form. Attribute: EC50. Fill in for each entry.
Dear colleague, please return just the value in nM, with no unit written.

// returns reported EC50 for input Nc1nc2c(ncn2[C@@H]2C[C@@H]3COP(=O)(O)OC4C(O)[C@H](n5cnc6c(Cl)ncnc65)O[C@@H]4COP(=O)(O)OC2C3O)c(=O)[nH]1 (some centres unmarked) [Compound 115]
70

I am curious: what EC50 value has been reported for CSc1ncnc2c1ncn2[C@@H]1O[C@@H]2COP(=O)(O)OC3C(O)[C@@H](COP(=O)(O)OC2C1O)C[C@H]3n1cnc2c(=O)[nH]c(N)nc21 (some centres unmarked) [Compound 110] ?
230

Which EC50 is reported for this compound? Nc1ncc2ncn([C@@H]3O[C@@H]4COP(=O)(O)OC5C(O)[C@@H](COP(=O)(O)OC4C3O)C[C@H]5n3cnc4c(=O)[nH]cnc43)c2n1 (some centres unmarked) [Compound 119]
400

If you can, please state the reported EC50 value of C#Cc1cn([C@@H]2O[C@@H]3COP(=O)(O)OC4C(O)[C@@H](COP(=O)(O)OC3C2O)C[C@H]4n2cnc3c(=O)[nH]c(N)nc32)c2ncnc(N)c12 (some centres unmarked) [Compound 114] .
400

Look up EC50: CNc1ncnc2c1ncn2[C@@H]1O[C@@H]2COP(=O)(O)OC3C(O)[C@@H](COP(=O)(O)OC2C1O)C[C@H]3n1cnc2c(=O)[nH]c(N)nc21 (some centres unmarked) [Compound 108]
170

----------
Could you please report measured ΔTm at 150 µM for the items listed next?
system under test: AQ STING (G230A-R293Q) (Homo sapiens, UniProt Q86WV6, G230A/H232R/R293Q)
Construct: truncated human WT STING or AQ STING (amino acid residues 140-343); 8xHis (N, cleaved yes); SUMO (N, cleaved yes); made in house; host or cells: E. coli Rosetta-gami B (DE3)
Sequence (Q86WV6 140-343 G230A/H232R/R293Q): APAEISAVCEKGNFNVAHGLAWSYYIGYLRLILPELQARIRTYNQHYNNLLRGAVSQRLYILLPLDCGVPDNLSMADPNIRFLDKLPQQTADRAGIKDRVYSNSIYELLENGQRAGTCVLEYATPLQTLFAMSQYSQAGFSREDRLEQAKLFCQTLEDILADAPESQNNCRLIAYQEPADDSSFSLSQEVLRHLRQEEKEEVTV
assay name: Differential scanning fluorimetry (DSF) with AQ STING
Type: binding
condition parameters: thermal shift, truncated human AQ STING 0.1 mg/ml, 150 μM CDN; read-out: DSF ΔTm AQ STING
Record the result as number plus unit.

Could you share which ΔTm at 150 µM value was measured for `Nc1ncnc2c1ncn2[C@@H]1O[C@@H]2COP(=O)(O)O[C@@H]3[C@H](F)[C@@H](COP(=O)(O)O[C@H]2[C@H]1F)C[C@H]3n1cnc2c(=O)[nH]cnc21` ?
16.8 °C

Field request: ΔTm at 150 µM | item: Nc1ncnc2c1c(I)cn2[C@@H]1O[C@@H]2COP(=O)(O)OC3C(O)[C@@H](COP(=O)(O)OC2C1O)C[C@H]3n1cnc2c(=O)[nH]cnc21 (stereo partly shown)
11.3 °C

Entry under review: CSc1nc(N)nc2c1ncn2[C@@H]1O[C@@H]2COP(=O)(O)OC3C(O)[C@@H](COP(=O)(O)OC2C1O)C[C@H]3n1cnc2c(=O)[nH]c(N)nc21 (stereo partly shown) . Reported ΔTm at 150 µM?
4.7 °C

Returns the measured ΔTm at 150 µM for the input molecule. Input: Nc1ncc2ncn([C@@H]3O[C@@H]4COP(=O)(O)OC5C(O)[C@@H](COP(=O)(O)OC4C3O)C[C@H]5n3cnc4c(=O)[nH]cnc43)c2n1 (stereo partly shown)
13.7 °C

# get_value(readout='ΔTm at 150 µM', item= Nc1nc2c(ncn2[C@@H]2C[C@@H]3COP(=O)(O)OC4C(O)[C@H](n5cnc6c(S)ncnc65)O[C@@H]4COP(=O)(O)OC2C3O)c(=O)[nH]1 (stereo partly shown) )
7.9 °C

Value lookup for ΔTm at 150 µM; key = Nc1nc2c(ncn2[C@@H]2C[C@@H]3COP(=O)(O)OC4C(O)[C@H](n5cnc6c(Cl)ncnc65)O[C@@H]4COP(=O)(O)OC2C3O)c(=O)[nH]1 (stereo partly shown)
14.2 °C

Name the recorded ΔTm at 150 µM for Nc1nc(N)c2ncn([C@@H]3O[C@@H]4COP(=O)(O)OC5C(O)[C@@H](COP(=O)(O)OC4C3O)C[C@H]5n3cnc4c(=O)[nH]c(N)nc43)c2n1 (stereo partly shown) .
13.2 °C

Fill in the blank: the reported ΔTm at 150 µM of Cc1cn([C@@H]2O[C@@H]3COP(=O)(O)OC4C(O)[C@@H](COP(=O)(O)OC3C2O)C[C@H]4n2cnc3c(=O)[nH]c(N)nc32)c2ncnc(N)c12 (stereo partly shown) is ____.
11.6 °C

Given the molecule Nc1nc2c(ncn2[C@@H]2C[C@@H]3COP(=O)(O)OC4C(O)[C@H](n5cnc6c(N)nc(F)nc65)O[C@@H]4COP(=O)(O)OC2C3O)c(=O)[nH]1 (stereo partly shown) , what is its reported ΔTm at 150 µM?
15.2 °C

Item under review: CSc1ncnc2c1ncn2[C@@H]1O[C@@H]2COP(=O)(O)OC3C(O)[C@@H](COP(=O)(O)OC2C1O)C[C@H]3n1cnc2c(=O)[nH]c(N)nc21 (stereo partly shown) . Reported ΔTm at 150 µM?
10.1 °C

Can you share its ΔTm at 150 µM? I mean this molecule: Nc1nc2c(ncn2[C@@H]2C[C@@H]3COP(=O)(S)OC4C(O)[C@H](n5cnc6c(N)ncnc65)O[C@@H]4COP(=O)(O)OC2C3O)c(=O)[nH]1 (stereo partly shown)
16 °C

Look up ΔTm at 150 µM: Cc1cn([C@@H]2O[C@@H]3COP(=O)(O)OC4C(O)[C@@H](COP(=O)(O)OC3C2O)C[C@H]4n2cnc3c(=O)[nH]cnc32)c2ncnc(N)c12 (stereo partly shown)
12.1 °C

Dear colleague, I am looking for the recorded ΔTm at 150 µM of the following molecule: Nc1ncc2ncn([C@@H]3O[C@@H]4COP(=O)(O)OC5C(O)[C@@H](COP(=O)(O)OC4C3O)C[C@H]5n3cnc4c(=O)[nH]c(N)nc43)c2n1 (stereo partly shown)
13.8 °C
